System: OVCAR-5 ovarian
measurement-protocol: NCI tumour cell line growth inhibition, 48 h
Below, each entry is listed with its recorded TGI.

> print(dat)
                                   compound  experimental.value
1  COc1ccc(C(=O)c2sc(Nc3ccc(Cl)cc3)nc2N)cc1            > 100 µM
2  Cc1oc2c(C)c3oc(=O)cc(C)c3cc2c1CN1C(=O)C2OCCOCCOCCOCCOCCO[C@H]2C1=O (stereo partly drawn)            > 100 µM

Task item: Reported TGI, compound Cc1ccc([N+](=O)[O-])cc1NC(=O)/C(=N/NC(=S)NN)C1SC(=S)NC1=O (stereo not drawn) : ____
Reply: > 100 µM
